System: spontaneously hypertensive (SHR) rat
Assay: Anti-hypertensive activity in the spontaneously hypertensive (SHR) rat (oral)
Format: in vivo
Details: 3 mg/kg
measurement type: Cardiac frequency, max effect at 3 mg/kg (% vs basal)
Give the number; % vs basal is assumed, so skip it.

INSERT INTO assay_data (compound, measurement_type, endpoint_result) VALUES
  ('COc1cc2nc(N3CCC(c4ccc(C)o4)CC3)nc(N)c2cc1OC', 'Cardiac frequency, max effect at 3 mg/kg', -0.2),
  ('COc1cccc(OC)c1OCCNCC1COc2ccccc2O1 (stereo not shown) [WB-4101, reference compound]', 'Cardiac frequency, max effect at 3 mg/kg', -5.7),
  ('COc1cc2nc(N3CCC(c4ccccc4)CC3)nc(N)c2cc1OC', 'Cardiac frequency, max effect at 3 mg/kg', -0.8);

Alright, here's another compound for you.
IN: Item COc1cc2nc(N3CCC(c4cc5ccccc5o4)CC3)nc(N)c2cc1OC has what recorded Cardiac frequency, max effect at 3 mg/kg?
OUT: -5.2

Where do these numbers come from? They come from patent US5985885A.
